Test system: wild type HSV-1
EXPERIMENT SUMMARY: PRA (plaque reduction assay with wild type HSV-1)
Format: cell-based
ASSAY CONTEXT: PRA; read-out: IC50 Inhibitory Activity (PRA)
READOUT NAME: IC50 (nM)
Respond with the bare value in nM.

Please tell me: IC50 of COc1ccc2sc3c(c2c1)SCCNC3=O , system wild type HSV-1?
550
